- protocol: yeast display, Sf9 membrane polyspecificity reagent, FACS + sequencing; frameworks hold sequencing errors
measured quantity: polyreactivity (PSR sort gate)

input_sequence=QVQLVESGGGLVQAGGSLRLSCAASGSTFYTYTMGWYRPGPGKEMELVAAISSSGGDTYYADSVKGRFTISRDNAKNTVYLQMNSLKPEDTAVYYCAALGAFPSLEFDYWGQGTQVTVSS reading="low polyreactivity"
input_sequence=QVQLVESGGGLVQAGGSLRLSCAASGNTFRLYAMGWYRQAPGKERELVATITSGVSTNYADSVKGRFTISRDNAKNTVYLQMNSLKPEDTAVYYCAARHYYTYSSGFGRYIYTEYYWGQGTQVTVSS reading="low polyreactivity"
input_sequence=QVQLVESGGGLVQAGGSLRLSCAASGSTFSGYAKGWYRQAPGKERELVAAINWNGGRTYYADSVKGRFTISRDNAKNTVYLQMNSLKPEDTAVYYCNKQSPRGRSAVYKYDYWGQGTQVTVSS reading="high polyreactivity"
input_sequence=QVQLVESGGGLVQAGGSLRLSCDASGRIFGRYAMGSYRPAPGNDRELVAAIPRNGGSTYADSVKGRFTISRDNAKNTVYLQMNSLKPEDTAVYYCAARNSYRYSKYDYWGQGTQVTVSS reading="high polyreactivity"
input_sequence=QVQLEESGGGLVQAGGRLRLSCAASGFIFWGNAMGWYRQAPGKERELVAGIRSLGGTTSYEDSVKGRFTISRDNAKNSVYLQINSLKPEDTAVYSCAAGYVAEFDYWGQVTQVTVSS reading="low polyreactivity"
input_sequence=QVQLVESGGGLVQAGGSLRLSCAASGITFTYYAMGWYRQAPGKERELVASITIGGGSTYYADSVKGRFTISRDNAKKTVYLQLNSLKPEYTAVYYCNAAFSVRHLYRYDYWGQGTQVTVSL reading="low polyreactivity"
input_sequence=QVQLVESGGGLVQAGGSLRLSCAASGSILQRNAMGWYRHARGTERELVAAISWSGDNTYYADSVKGRFTISRDNAKNTVYLQMISLKPEDTAVYYCATDDDIYFQEYDYWGQGTQVTVSA reading="low polyreactivity"
input_sequence=QVQLVESGGGLVQAGGSLRLSCAASGNIFYLYAMGWYRQAPGKERELVARITIGGSTYYADSVKGRFTISRDNAKNTVYLQMNSLKPEDTAVYYCAARGPYYRYYYWGQGTQVTVSS reading="high polyreactivity"
input_sequence=QVQLVESGGGLVQAGGSLRLSCAASGITFNSYTMGWYRQAPGKERELVAAISDNGGRTFYADSVKGRFTISRDNAKNTVYLQMNSLKPEDTAVYYCAAVVYSEYYYWGQGTQVTVSS reading="low polyreactivity"
input_sequence=QVQLVESGGGLVQAGGSLRLSCAASGRIFGDYAMGWYRKAPGKERELLAAISWSDGSTYYADSVKGRFTISRDNAKNTVYLQMNSLKPEDTAVYYCAAYGWGYRYVDVVVSDFYYWGQGTQVTVSS reading="low polyreactivity"
input_sequence=QVQLEESGGGLVQAGGTLRLSCAASGIIFDGNAMVWYRQAPGKERELVASITSDSSTNYADSVKGRFTISRDNAKNTVYLQMNSLKPEDTAVYYCAADHWIAPRRDYWGQGSQVTVSS reading="low polyreactivity"
input_sequence=QVQLVESGGGLVQAGGSLRLSCAASGRTLRRYAMGWYRQAPGKERELVADISWRGTSTNYADSVKGRFTISRDNAKNTVYLQMNSLKPEDTAVYYCAAKQTYTRLHYLGPSVWDNYDYWGQGTQVTVSS reading="high polyreactivity"
input_sequence=QGQLVESGGGLVQAGGSLRLSCAASGSIFNTYAMGWYRQAPGKEREFVASISRSGGSTRYADSVKGRFTISRDNAKNTVYLQMNSLKPEDTEVYYSAARVPRGHVTYDSWGQGTKVTVSS reading="high polyreactivity"
input_sequence=QVQLEESGGGLVQAGGSLRLSCAASGLTFPSNAMGWYRQATGKERALVASISKRGGRTYYADSVKGRFTISRDNAKHTVYLQMNSLKPEDTAVYDCATPYAYPGSVQYAGYNYWGQGTQVTVSS reading="high polyreactivity"
input_sequence=QVQLVESGGCLVQAGGSLRLSCAASGLTFSWYAMGWYRQAPGKERELVAAISTRGGRTYYADSVKGRFTISRDNAKNTVYLQMNSLKPEDTAVYYCAAGVSYRYLWLVDYWGQGTQVTVSS reading="high polyreactivity"
input_sequence=QVQLVESGGGLVQAGGSLRLSCAASGSIFAVYAMGWYRQAPGKERELVASISRTGTTNYADSVKGRFTISRDNAKNTVYLQMNSLKPEDTAVYYCAADTWGLPDGYWYSEHPEFDYWGQGTQVTVSS reading="low polyreactivity"
input_sequence=QVQLVESGGGLVQAGGSLRLSCAPSGRIFWRYAMGWYRQAPGKERELVAGITYSGGRTYYADSVKGRFTISRDNAKNSVFLQMNSLKPEDSAVYYCAARGYFDALVDYWGQGTQVTVSS reading="low polyreactivity"
input_sequence=QVQLVESGVGIVQAGGSLRLSCAASGFTFSSNAMGWYSQAPGKEREFVADISIIGGDTTYADSVKGRFTISRDNAKNTVYFQMNSLKAEDTADYYCIAKPPGWFWGGFSYNRYYYWGQGTQVTVSS reading="low polyreactivity"
input_sequence=QVQLVESGGGLVQAGGSLRLSCAASGSIFYYYAMGWYRQAPGKERELVAAINGGDTYYADSVKGRFTISRDNAKNTVYLQMNSLKPEDTAVYYCAAEGVTVEWDYDYWGQGTQVTVSS reading="low polyreactivity"
input_sequence=QVQLVESGGGLVQAGGSLGLSCAASGYTFDHNAMGWYRQAPGKERELVAAINWSGGSTYYADSVKVRFTISRDNAKNTVYLQMKSLKPEDTAVYYCARYRVLASRVDYWGQGTQVTVSS reading="high polyreactivity"
input_sequence=QVQLVESGGGLVQAGGSLRLSCAASGRIFYMNAMGWYRQAPGKERELVAGITNSTTGTYYADSVKGRFTISRDNAKNTVYLQMNSLKPEDTAVYYCNTDVAYEEPVETYDYWGQGTQVTVSS reading="low polyreactivity"

----------
- protocol: yeast display, Sf9 membrane polyspecificity reagent, FACS + sequencing; frameworks hold sequencing errors
measured quantity: polyreactivity (PSR sort gate)

input_sequence=QVQLVESGGGLVQAGGSLRLSCADSGSIFWGNAMGWYRQAPGKERELVAAITRGGSTYYADSVKGRFTISRDNAKNTVYLQMNSLTPEDTAVYYWAVLSRRYAAYDYWGLGTQVTVSS measured_quantity="polyreactivity (PSR sort gate)" reading="high polyreactivity"
input_sequence=QVQLVESGGGLVQAGGSLRLSSAASGFTFVTYSKGWNRQATGKERELVAAISIRGGSTYADSVKGRFTISRDNAKNSVYLQMNSLKPEDTAVYSCATGRALEYNYWGQGTQVTVSS measured_quantity="polyreactivity (PSR sort gate)" reading="low polyreactivity"
input_sequence=QVQLVESGGGLVQAGGSLRFSCAASGSIFPYYAMGWYRQAPGKERELVAAISDSGDSTYYADSVKGRFTISRDNAKNTVYLQMNSLKPEDTAVYYCAADQTSSYYDPWGDYWGQGTQVTVSS measured_quantity="polyreactivity (PSR sort gate)" reading="low polyreactivity"
input_sequence=QVQLVESGGGLVQAGGSLRLSCAASGRTLPYYMRWYRQAPGKERELVAAITNGDSTYYADSVKGRFTISRDNAQNTVYLQMNSLKPEDTAVYDCAARQKVPPQYWGQGTQVTVSS measured_quantity="polyreactivity (PSR sort gate)" reading="high polyreactivity"
input_sequence=QVQLVETGGGLVQAGGSLRLSCAASGRTYAFYAMGWYRQAPGKERELVASISSSGDRPYYADSVKGRFTISRDNAKNTVFLQLNSLKPEDTAVYYCAARWRYTYYYWGQGTQVTVSS measured_quantity="polyreactivity (PSR sort gate)" reading="high polyreactivity"

----------
- protocol: yeast display, Sf9 membrane polyspecificity reagent, FACS + sequencing; frameworks hold sequencing errors
measured quantity: polyreactivity (PSR sort gate)

input_sequence=QVQLVESGGGLVQAGGSLRLRCAASGSTFYYYAMGWYRQAPGKERELVAANTLRGTSTYYADSVKGRFTISRDNAKNTVYLQMNRLKPEDTAVYYCAVETYYSIFDIYDYWGQGTQVTVSS measured_quantity="polyreactivity (PSR sort gate)" reading="low polyreactivity"
input_sequence=QVQLVESGGGLVQAGGSLRLSCAASGITLPYYAMGWYRQAPGKERELVAGISSRGGSTYYADSVKGRFTISRDNAKNTVYLQMNSLKPEDTAVYYCAAKVASTRLGPAYGYWGQGTQVTVSS measured_quantity="polyreactivity (PSR sort gate)" reading="high polyreactivity"
input_sequence=QVQLVESGGGLVQAGGSLRLSCAASGSTFNRYAMGWYRQAPGKERELVAAISWNGGSTYYADSVKGRFTSSRDNAKNTVYLQMNSLKPEDTAVYYCATLVRKYDGFNYWGQGTQVTVSS measured_quantity="polyreactivity (PSR sort gate)" reading="high polyreactivity"
input_sequence=QVQHVESGGGLVQAGGSLRLSCAASGYTFIMYVMGWYRQAPGKERELVAAIDSNGTSTYADSVKGRFTISLDNAKNTVYFQMNSLKPEDTAVYYCAAGDIFRVFKEYDYWGQGTQVTVSS measured_quantity="polyreactivity (PSR sort gate)" reading="low polyreactivity"
input_sequence=QVQLVESAGGLVQAGGSLRLSCAASGRIFPRYAMGWYRQAPGKERELVAAINTSGGRTYYADSVKGRFTISRDYAKNTVYLQMNSLKPEDTAVYFCAADYRSRYDYWGQGTQVTVSS measured_quantity="polyreactivity (PSR sort gate)" reading="high polyreactivity"
input_sequence=QVQLVESGGGLVQAGGSLRLSCAASGRTFYSNAMGWYRQAPGKERELVAAITFGGGSTYYADSVKGRFTISRDNAKNTVYVQMNSLKPEDTAVYYCAAEGYKYRFYYWGQGTQVTVSS measured_quantity="polyreactivity (PSR sort gate)" reading="low polyreactivity"
input_sequence=QVQRVESGGGLVQAGGSLRLSCAASGIIFQSYAMGWYRHAPGKERELVAAISRRGGRTYYADSVKGRFTISRDNAKNTVYLQMNSLKPEDTAVYYCADRYRYAPYDYWGQGTQVTVSS measured_quantity="polyreactivity (PSR sort gate)" reading="high polyreactivity"
input_sequence=QVHLVESGGVLVQAGCSLRLSCSASGSTFDFNAMGWYRQAPGKERELVAAITSGDSTNYADSVQGRFTISRDNAKNTVYLQMNSLKPEDTAVYYCAARYYWKYITSAARRAGSDYWGQGTQVTVSS measured_quantity="polyreactivity (PSR sort gate)" reading="low polyreactivity"
input_sequence=QVQLVESGGGLVQEGRSLRLSCAASGSIFTPYAMGWYRQAPGKERELVADINSGGSTDYADSVKGRFTISRDNAKNTVYLQMNSLKPEDTAVYYCASTWSFYFILYDYWGQGTQVTVSS measured_quantity="polyreactivity (PSR sort gate)" reading="high polyreactivity"
input_sequence=QVQHVESVGGLVQAGGSLRLSCAASGSIFDDYAMGWYRPAPGKERELVAAISSSGTSTYYADSVKGRFTISRDNAKNTVYLQMNSLKPEDTAVYYCAARSAILKSGYLMDYWGQGTQVTVSS measured_quantity="polyreactivity (PSR sort gate)" reading="low polyreactivity"
input_sequence=QVQLVESGGGLVQAGGSLRLSCAASGRIFVGYAMGWYRQAPGKERELVAAINRSGSSTYYADSVKGRFTISRDNAKNTVYLQMNSLKPEDTAVYYCNARSGNRYGPRYDYWGQGTQVTVSS measured_quantity="polyreactivity (PSR sort gate)" reading="high polyreactivity"
